meta.source: ChEMBL document CHEMBL1157862

- experimental_target: 5-hydroxytryptamine receptor 2A (Rattus norvegicus) (UniProt P14842)
- Sequence (P14842 whole entry): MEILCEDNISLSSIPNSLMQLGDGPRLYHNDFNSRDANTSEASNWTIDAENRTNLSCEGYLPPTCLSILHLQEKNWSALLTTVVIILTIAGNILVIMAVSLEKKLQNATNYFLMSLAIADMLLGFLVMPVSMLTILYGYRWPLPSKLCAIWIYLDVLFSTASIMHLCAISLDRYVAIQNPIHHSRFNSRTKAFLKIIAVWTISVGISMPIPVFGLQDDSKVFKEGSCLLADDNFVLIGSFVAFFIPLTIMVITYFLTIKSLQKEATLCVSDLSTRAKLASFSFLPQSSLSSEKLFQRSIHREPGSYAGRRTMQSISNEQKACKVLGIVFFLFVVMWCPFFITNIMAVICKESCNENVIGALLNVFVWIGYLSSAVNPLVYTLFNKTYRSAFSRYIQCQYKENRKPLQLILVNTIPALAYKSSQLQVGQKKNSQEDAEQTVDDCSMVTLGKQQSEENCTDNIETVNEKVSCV
- procedure_summary: Antagonist activity at 5HT2A receptor in Sprague-Dawley rat assessed as inhibition of 5HT-induced pulmonary arterial pressure at 100 uM relative to 5HT
- Type: functional
reported_property: inhibition (%)

Some solved cases for reference:
- test_smiles: "CCOC(=O)c1c(NC(=O)CN2CCN(c3ccccc3OCC)CC2)sc2c1CCN(C)C2"
  inhibition / %: 65
- test_smiles: "COc1ccccc1N1CCN(CCn2c(=O)[nH]c3sc4c(c3c2=O)CCN(C)C4)CC1"
  inhibition / %: 65
- test_smiles: "CCOC(=O)c1c(NC(=O)CN2CCN(c3ccccc3)CC2)sc2c1CCN(C)C2"
  inhibition / %: 62

A: CCOC(=O)c1c(NC(=O)CN2CCN(c3ccccc3OC)CC2)sc2c1CCN(C)C2
B: CN1CCc2c(sc3[nH]c(=O)n(CCN4CCN(c5ccccc5)CC4)c(=O)c23)C1
I would appreciate it if you could say which entry, A or B , has the lower inhibition value. API: response body contains the label of the selected item.
B
(B: 60%, A: 88%)
